system: pTK control vector; assay: pTK control vector luciferase assay (minimal thymidine kinase promoter); type: cell-based; conditions: Homo sapiens, HeLa cells, 30 µM, no inducer, read-out: percentage of luciferase induction pTK/No Induction
PARAMETER_MEASURED: activity at 30 µM (%)
Numbers only, in %.

MOLECULE: O=C1c2cccc(O)c2C(=O)c2c(O)cccc21 [Compound 12, danthron, reference compound]
activity at 30 µM / %: 101
//
MOLECULE: O=C1c2cccc(O)c2C(=O)c2c(O)cc(CO)cc21 [Compound 14, aloe-emodin, reference compound]
activity at 30 µM / %: 136
//
MOLECULE: O=C1c2ccccc2C(=O)c2c(O)ccc(O)c21 [Compound 13, quinizarin, reference compound]
activity at 30 µM / %: 134

Can you give me activity at 30 µM for all of these, one by one?
1. O=C1c2ccccc2C(=O)c2c(O)c(O)cc(O)c21
2. Cc1cc(O)c2c(c1)C(=O)c1cccc(O)c1C2=O [Compound 11, chrysophanol, reference compound]
3. O=C1c2ccccc2C(=O)c2c1ccc(O)c2O
4. Cc1cc(O)c2c(c1)C(=O)c1cc(O)cc(O)c1C2=O

Key:
198
183
116
144
